- Organism: Homo sapiens
- ASSAY_TEXT: Potency relative to flurbiprofen in inhibiting collagen-induced platelet aggregation in human platelet-rich plasma (PRP)
- Format: functional
PROPERTY_MEASURED: Relative potency

INSERT INTO assay_data (compound, reading) VALUES
  ('CC(=O)Oc1ccccc1C(=O)O [ASPIRIN]', 0.01),
  ('COc1ccc(-c2snnc2-c2ccc(OC)cc2OC)cc1', 3.1),
  ('COc1ccc(-c2nnsc2-c2cccs2)cc1', 0.1),
  ('CN(C)c1ccc(-c2nnsc2-c2ccc(N(C)C)cc2)cc1', 10),
  ('Cl.Cl.Nc1ccc(-c2nnsc2-c2ccc(N)cc2)cc1', 0.03),
  ('COc1ccc(-c2nnsc2-c2ccc(OC)cc2)cc1', 100),
  ('c1ccc(-c2nnsc2-c2ccccc2)cc1', 0.03);
